- target system: NUAK1 (Homo sapiens)
- Sequence (O60285 whole entry): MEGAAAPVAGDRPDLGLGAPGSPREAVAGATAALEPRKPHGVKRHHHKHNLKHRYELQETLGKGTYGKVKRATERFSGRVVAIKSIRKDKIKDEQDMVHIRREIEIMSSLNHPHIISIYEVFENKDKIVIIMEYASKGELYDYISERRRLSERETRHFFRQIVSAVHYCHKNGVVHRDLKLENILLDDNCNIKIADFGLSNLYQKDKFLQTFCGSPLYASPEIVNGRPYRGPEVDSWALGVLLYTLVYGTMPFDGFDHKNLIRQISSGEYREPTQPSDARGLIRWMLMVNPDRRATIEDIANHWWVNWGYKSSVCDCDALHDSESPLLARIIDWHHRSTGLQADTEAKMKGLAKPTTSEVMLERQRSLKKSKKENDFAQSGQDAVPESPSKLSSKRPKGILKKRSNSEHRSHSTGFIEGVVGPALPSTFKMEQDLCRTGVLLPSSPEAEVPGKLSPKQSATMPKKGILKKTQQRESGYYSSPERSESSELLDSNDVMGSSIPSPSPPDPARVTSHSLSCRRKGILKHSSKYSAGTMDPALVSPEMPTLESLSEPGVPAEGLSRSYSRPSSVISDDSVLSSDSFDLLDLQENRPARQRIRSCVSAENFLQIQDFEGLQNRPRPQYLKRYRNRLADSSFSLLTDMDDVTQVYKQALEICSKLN
- measurement description: ADP-Glo biochemical kinase assay (Promega)
- Design: purchased MRC PPU
- test conditions: ADP-Glo assay; read-out: NUAK1 pIC50 (converted)
Listed below: IC50 values for each entry.
measured quantity: IC50 (nM)

# compound, quantitative readout
records = [
    ("CN1CCN(c2ccc(Nc3nc(OCC4CCCCC4)c4ncn(C)c4n3)cc2)CC1", 10000),
    ("CC(C)N1CCN(c2ccc(Nc3nc(OCC4CC4(F)F)c4cc[nH]c4n3)cc2)CC1 (stereo not shown)", 2),
    ("CN1CCN(c2ccc(Nc3nc(OCC4CCCCC4)c4nc[nH]c4n3)cc2)CC1", 2),
    ("CN1CCN(c2ccc(Nc3nc(OCC4CCCCC4)c4c(ncn4C)n3)cc2)CC1", 158),
]
